- procedure summary: Systemic exposure and pharmacokinetics after single oral gavage dose of 200 mg/kg in fasted male SD rats
- Assay type: in vivo, Sprague Dawley (SD) rats
- condition description: male, Sprague-Dawley, rat, plasma, po, 9 h post dose, fasted male SD rats, PO 200 mg/kg, mean ± SD, read-out: Mean plasma concentration of MBX-2982
measurement label: concentration at 9 h

1) CCc1cnc(N2CCC(c3nc(COc4ccc(-n5cnnn5)cc4)cs3)CC2)nc1 :: 15000 ng/mL

* * *

- procedure summary: Systemic exposure and pharmacokinetics after single oral gavage dose of 200 mg/kg in fasted male SD rats
- Type: in vivo, Sprague Dawley (SD) rats
- condition description: male, Sprague-Dawley, rat, plasma, po, fasted male SD rats, single PO dose 200 mg/kg, mean ± SD, read-out: AUC0-t
- Description: Two studies were conducted in order to compare the systemic exposure and pharmacokinetics (PK) of microcrystalline MBX-2982 and salt forms of MBX-2982 in fasted male Sprague Dawley (SD) rats following single oral gavage (PO) doses of 200 mg/kg. Four salt foms of MBX-2982 were investigate in the studies. […] Plasma concentration-time data for individual animals were analyzed using WinNonlin software (Professional, version 5.0.1; Pharsight Corp.). […]
measurement label: AUC(0-t)

1. CCc1cnc(N2CCC(c3nc(COc4ccc(-n5cnnn5)cc4)cs3)CC2)nc1.Cl [HCl Salt Form I] :: 571 µg·h/mL
2. CCc1cnc(N2CCC(c3nc(COc4ccc(-n5cnnn5)cc4)cs3)CC2)nc1 :: 236 µg·h/mL
